We begin with a simple list: items and their reported SC Flux.
System: luciferase
Assay: Luciferase expression after local (intramuscular or subcutaneous) administration of mRNA
Type: in vivo
Settings: subcutaneous, mRNA 0.01 mpk, 6 hours
Non-standard residues stand in square brackets, D forms with d. Residues, ends and D or L forms follow the SMILES beside them. *: point of attachment. Gly(N-(3-decanoyloxypropyl)) = CCCCCCCCCC(=O)OCCCNCC(=O)O; N(3-lauroyloxypropyl)Gly = CCCCCCCCCCCC(=O)OCCCNCC(=O)O; N(3-imidazol-1-ylpropyl)Gly = O=C(O)CNCCCn1ccnc1; Gly(N-3-morpholinopropyl) = O=C(O)CNCCCN1CCOCC1; N(2-ethylhexyl)Gly = CCCCC(CC)CNCC(=O)O; Gly(N-dodecyl) = CCCCCCCCCCCCNCC(=O)O; For = O=C*
Respond with the figure and its unit, in that order.

COMPOUND	SYSTEM_UNDER_TEST	SC Flux
CCCCCCCCCCCCN(C=O)CC(=O)N(CCCOC(=O)CCCCCCCCC)CC(=O)N(CC(=O)N(CCCN1CCOCC1)CC(=O)N(CC(=O)N(CCCOC(=O)CCCCCCCCC)CC(=O)N(CCCCCCCCCCCC)CC(N)=O)CC(CC)CCCC)CC(CC)CCCC (centres unmarked) [Compound 88] (For-[Gly(N-dodecyl)][Gly(N-(3-decanoyloxypropyl))][N(2-ethylhexyl)Gly][Gly(N-3-morpholinopropyl)][N(2-ethylhexyl)Gly][Gly(N-(3-decanoyloxypropyl))][Gly(N-dodecyl)]-NH2)	luciferase	6.88E+07 p/s

Consider the additional compound presented here.
Incoming: Consider the compound shown here: CCCCCCCCCCCC(=O)OCCCN(CC(=O)N(CC(=O)N(CCCn1ccnc1)CC(=O)N(CC(=O)N(CCCOC(=O)CCCCCCCCCCC)CC(=O)N(CC(N)=O)CC(CC)CCCC)CC(CC)CCCC)CC(CC)CCCC)C(=O)CN(C=O)CC(CC)CCCC (centres unmarked) [Compound 82] (For-[N(2-ethylhexyl)Gly][N(3-lauroyloxypropyl)Gly][N(2-ethylhexyl)Gly][N(3-imidazol-1-ylpropyl)Gly][N(2-ethylhexyl)Gly][N(3-lauroyloxypropyl)Gly][N(2-ethylhexyl)Gly]-NH2) What is its recorded SC Flux?
Outgoing: 1.41E+08 p/s

* * *

Test: Delivery vehicle size and polydispersity by dynamic light scattering
Assay type: physicochemical
Settings: formulation recipe D22
Non-standard residues stand in square brackets, D forms with d. Residues, ends and D or L forms follow the SMILES beside them. N(3-lauroyloxypropyl)Gly = CCCCCCCCCCCC(=O)OCCCNCC(=O)O; N(2-ethylhexyl)Gly = CCCCC(CC)CNCC(=O)O; N(CH(CH2OH)2)Gly = O=C(O)CNC(CO)CO
MEASURE_NAME: Particle Size (nm)
Numeric answer only, unit nm assumed.

Incoming: Consider the compound shown here: CCCCCCCCCCCC(=O)OCCCN(CC(=O)N(CC(=O)N(CC(=O)N(CCCOC(=O)CCCCCCCCCCC)CC(=O)N(CC(=O)N(CC(N)=O)CC(CC)CCCC)CC(CC)CCCC)CC(CC)CCCC)CC(CC)CCCC)C(=O)CNC(CO)CO (stereo not shown) [Compound 51] (H-[N(CH(CH2OH)2)Gly][N(3-lauroyloxypropyl)Gly][N(2-ethylhexyl)Gly][N(2-ethylhexyl)Gly][N(3-lauroyloxypropyl)Gly][N(2-ethylhexyl)Gly][N(2-ethylhexyl)Gly]-NH2) What is its recorded Particle Size?
Outgoing: 61.4

* * *

We begin with a simple list: items and their reported Particle Size.
Experiment: Delivery vehicle size and polydispersity by dynamic light scattering
Type: physicochemical
Conditions: DLS in PBS; peptoid:DSPC:Cholesterol:DMG-PEG2000 weight ratio 20:1.79:7.16:1.84, mRNA
Non-standard residues stand in square brackets, D forms with d. Residues, ends and D or L forms follow the SMILES beside them. *: point of attachment. Gly(N-(3-decanoyloxypropyl)) = CCCCCCCCCC(=O)OCCCNCC(=O)O; N(3-lauroyloxypropyl)Gly = CCCCCCCCCCCC(=O)OCCCNCC(=O)O; Gly(N-(CH2)3O-octanoyl) = CCCCCCCC(=O)OCCCNCC(=O)O; Gly(N-3-morpholinopropyl) = O=C(O)CNCCCN1CCOCC1; N(2-ethylhexyl)Gly = CCCCC(CC)CNCC(=O)O; Gly(N-dodecyl) = CCCCCCCCCCCCNCC(=O)O; N(CH(CH2OH)2)Gly = O=C(O)CNC(CO)CO; N(octyl)Gly = CCCCCCCCNCC(=O)O; NDecylGly = CCCCCCCCCCNCC(=O)O; For = O=C*
Numeric answer only, unit nm assumed.

COMPOUND	MEASURE_NAME	OBSERVED_VALUE
CCCCCCCCCC(=O)OCCCN(C=O)CC(=O)N(CC(=O)N(CCCOC(=O)CCCCCCCCC)CC(=O)N(CCCN1CCOCC1)CC(=O)N(CCCOC(=O)CCCCCCCCC)CC(=O)N(CC(=O)N(CCCOC(=O)CCCCCCCCC)CC(N)=O)CC(CC)CCCC)CC(CC)CCCC (centres unmarked) [Compound 121] (For-[Gly(N-(3-decanoyloxypropyl))][N(2-ethylhexyl)Gly][Gly(N-(3-decanoyloxypropyl))][Gly(N-3-morpholinopropyl)][Gly(N-(3-decanoyloxypropyl))][N(2-ethylhexyl)Gly][Gly(N-(3-decanoyloxypropyl))]-NH2)	Particle Size	82.9
CCCCCCCCCCCCN(CC(=O)N(CC(N)=O)CC(CC)CCCC)C(=O)CN(CC(CC)CCCC)C(=O)CN(CC(CC)CCCC)C(=O)CN(CCCOC(=O)CCCCCCC)C(=O)CN(CC(CC)CCCC)C(=O)CNC(CO)CO (centres unmarked) [Compound 14] (H-[N(CH(CH2OH)2)Gly][N(2-ethylhexyl)Gly][Gly(N-(CH2)3O-octanoyl)][N(2-ethylhexyl)Gly][N(2-ethylhexyl)Gly][Gly(N-dodecyl)][N(2-ethylhexyl)Gly]-NH2)	Particle Size	72.1
CCCCCCCCCCN(CC(=O)N(CC(=O)N(CCCOC(=O)CCCCCCCCC)CC(N)=O)CC(CC)CCCC)C(=O)CN(CC(CC)CCCC)C(=O)CN(CCCOC(=O)CCCCCCCCC)C(=O)CN(CC(CC)CCCC)C(=O)CNC(CO)CO (centres unmarked) [Compound 58] (H-[N(CH(CH2OH)2)Gly][N(2-ethylhexyl)Gly][Gly(N-(3-decanoyloxypropyl))][N(2-ethylhexyl)Gly][NDecylGly][N(2-ethylhexyl)Gly][Gly(N-(3-decanoyloxypropyl))]-NH2)	Particle Size	70.4
CCCCCCCCCCCC(=O)OCCCN(CC(=O)N(CC(N)=O)CC(CC)CCCC)C(=O)CN(CCCCCCCC)C(=O)CN(CC(CC)CCCC)C(=O)CN(CCCOC(=O)CCCCCCCCCCC)C(=O)CN(CCCCCCCC)C(=O)CN(C=O)CCCN1CCOCC1 (centres unmarked) [Compound 74] (For-[Gly(N-3-morpholinopropyl)][N(octyl)Gly][N(3-lauroyloxypropyl)Gly][N(2-ethylhexyl)Gly][N(octyl)Gly][N(3-lauroyloxypropyl)Gly][N(2-ethylhexyl)Gly]-NH2)	Particle Size	87.1

Consider the additional compound presented here.
Incoming: Consider the compound shown here: CCCCCCCCCCCCN(C=O)CC(=O)N(CCCOC(=O)CCCCCCC)CC(=O)N(CC(=O)N(CCCN1CCOCC1)CC(=O)N(CC(=O)N(CCCOC(=O)CCCCCCC)CC(=O)N(CCCCCCCCCCCC)CC(N)=O)CC(CC)CCCC)CC(CC)CCCC (centres unmarked) [Compound 116] (For-[Gly(N-dodecyl)][Gly(N-(CH2)3O-octanoyl)][N(2-ethylhexyl)Gly][Gly(N-3-morpholinopropyl)][N(2-ethylhexyl)Gly][Gly(N-(CH2)3O-octanoyl)][Gly(N-dodecyl)]-NH2) What is its recorded Particle Size?
Outgoing: 88.9

* * *

Assay: Delivery vehicle size and polydispersity by dynamic light scattering
Format: physicochemical
Settings: DLS in PBS; peptoid:DSPC:Cholesterol:DMG-PEG2000 weight ratio 20:1.79:7.16:1.84, mRNA
Starred links: 1 amine or outer side, 2 acyl side, 3 side chain; linkers in the order of their positions; H or OH if unused. Non-standard residues stand in square brackets, D forms with d. Residues, ends and D or L forms follow the SMILES beside them. *: point of attachment. Gly(N-(3-decanoyloxypropyl)) = CCCCCCCCCC(=O)OCCCNCC(=O)O; N(3-lauroyloxypropyl)Gly = CCCCCCCCCCCC(=O)OCCCNCC(=O)O; N(2-decanoyloxyethyl)Gly = CCCCCCCCCC(=O)OCCNCC(=O)O; Gly(N-(CH2)3O-octanoyl) = CCCCCCCC(=O)OCCCNCC(=O)O; N(3-imidazol-1-ylpropyl)Gly = O=C(O)CNCCCn1ccnc1; Gly(N-3-morpholinopropyl) = O=C(O)CNCCCN1CCOCC1; N(2-ethylhexyl)Gly = CCCCC(CC)CNCC(=O)O; X1 = CCCCC(CC)CSSCCN(CC(=O)[*:2])[*:1]; X2 = CCCCCCC(CCCC)CN(CC(=O)[*:2])[*:1]; Gly(N-dodecyl) = CCCCCCCCCCCCNCC(=O)O; N(CH(CH2OH)2)Gly = O=C(O)CNC(CO)CO; N(octyl)Gly = CCCCCCCCNCC(=O)O; NHexGly = CCCCCCNCC(=O)O; For = O=C*
MEASURE_NAME: Particle Size (nm)
Numeric answer only, unit nm assumed.

COMPOUND	READOUT_UNITS	Particle Size
CCCCCCCCCCCC(=O)OCCCN(CC(=O)N(CCCOC(=O)CCCCCCCCCCC)CC(=O)N(CCCCCC)CC(=O)N(CCCOC(=O)CCCCCCCCCCC)CC(=O)N(CCCOC(=O)CCCCCCCCCCC)CC(=O)N(CCCCCC)CC(N)=O)C(=O)CNCCCn1ccnc1 [Compound 73] (H-[N(3-imidazol-1-ylpropyl)Gly][N(3-lauroyloxypropyl)Gly][N(3-lauroyloxypropyl)Gly][NHexGly][N(3-lauroyloxypropyl)Gly][N(3-lauroyloxypropyl)Gly][NHexGly]-NH2)	nm	111.2
CCCCCCCCCC(=O)OCCCN(CC(N)=O)C(=O)CN(CC(CC)CCCC)C(=O)CN(CCCOC(=O)CCCCCCCCC)C(=O)CN(CCCOC(=O)CCCCCCCCC)C(=O)CN(CC(CC)CCCC)C(=O)CN(CCCOC(=O)CCCCCCCCC)C(=O)CNC(CO)CO (stereo not drawn) [Compound 53] (H-[N(CH(CH2OH)2)Gly][Gly(N-(3-decanoyloxypropyl))][N(2-ethylhexyl)Gly][Gly(N-(3-decanoyloxypropyl))][Gly(N-(3-decanoyloxypropyl))][N(2-ethylhexyl)Gly][Gly(N-(3-decanoyloxypropyl))]-NH2)	nm	88.5
CCCCCCCCCCCC(=O)OCCCN(CC(=O)N(CC(=O)N(CC(=O)N(CCCOC(=O)CCCCCCCCCCC)CC(=O)N(CC(N)=O)CC(CC)CCCC)CC(CC)CCCC)CC(CC)CCCC)C(=O)CN(CC(CC)CCCC)C(=O)CNC(CO)CO (stereo not drawn) [Compound 6] (H-[N(CH(CH2OH)2)Gly][N(2-ethylhexyl)Gly][N(3-lauroyloxypropyl)Gly][N(2-ethylhexyl)Gly][N(2-ethylhexyl)Gly][N(3-lauroyloxypropyl)Gly][N(2-ethylhexyl)Gly]-NH2)	nm	83.9
CCCCCCCCCCCCN(C=O)CC(=O)N(CCCOC(=O)CCCCCCCCC)CC(=O)N(CC(=O)N(CCCN1CCOCC1)CC(=O)N(CC(=O)N(CCCOC(=O)CCCCCCCCC)CC(=O)N(CCCCCCCCCCCC)CC(N)=O)CC(CC)CCCC)CC(CC)CCCC (stereo not drawn) [Compound 88] (For-[Gly(N-dodecyl)][Gly(N-(3-decanoyloxypropyl))][N(2-ethylhexyl)Gly][Gly(N-3-morpholinopropyl)][N(2-ethylhexyl)Gly][Gly(N-(3-decanoyloxypropyl))][Gly(N-dodecyl)]-NH2)	nm	73.1
CCCCCCCCCC(=O)OCCCN(CC(=O)N(CC(=O)N(CC(=O)N(CCCOC(=O)CCCCCCCCC)CC(=O)N(CC(N)=O)CC(CCCC)CCCCCC)CC(CC)CCCC)CC(CCCC)CCCCCC)C(=O)CN(CC(CC)CCCC)C(=O)CNC(CO)CO (stereo not drawn) [Compound 61] (H-[N(CH(CH2OH)2)Gly][N(2-ethylhexyl)Gly][Gly(N-(3-decanoyloxypropyl))][X2][N(2-ethylhexyl)Gly][Gly(N-(3-decanoyloxypropyl))][X2]-NH2)	nm	75.4
CCCCCCCCCCCC(=O)OCCCN(CC(=O)N(CC(=O)N(CC(=O)N(CCCOC(=O)CCCCCCCCCCC)CC(=O)N(CC(=O)N(CC(N)=O)CC(CC)CCCC)CC(CC)CCCC)CC(CC)CCCC)CC(CC)CCCC)C(=O)CNC(CO)CO (stereo not drawn) [Compound 51] (H-[N(CH(CH2OH)2)Gly][N(3-lauroyloxypropyl)Gly][N(2-ethylhexyl)Gly][N(2-ethylhexyl)Gly][N(3-lauroyloxypropyl)Gly][N(2-ethylhexyl)Gly][N(2-ethylhexyl)Gly]-NH2)	nm	61.4
CCCCCCCCCC(=O)OCCN(CC(N)=O)C(=O)CN(CC(CC)CCCC)C(=O)CN(CCOC(=O)CCCCCCCCC)C(=O)CN(CCOC(=O)CCCCCCCCC)C(=O)CN(CC(CC)CCCC)C(=O)CN(CCOC(=O)CCCCCCCCC)C(=O)CNC(CO)CO (stereo not drawn) [Compound 56] (H-[N(CH(CH2OH)2)Gly][N(2-decanoyloxyethyl)Gly][N(2-ethylhexyl)Gly][N(2-decanoyloxyethyl)Gly][N(2-decanoyloxyethyl)Gly][N(2-ethylhexyl)Gly][N(2-decanoyloxyethyl)Gly]-NH2)	nm	102.4
CCCCCCCCCCCC(=O)OCCCN(CC(=O)N(CC(=O)N(CC(=O)N(CCCn1ccnc1)CC(=O)N(CC(=O)N(CC(=O)N(CCCOC(=O)CCCCCCCCCCC)CC(=O)N(CC(N)=O)CC(CC)CCCC)Cc1ccco1)CC(CC)CCCC)CC(CC)CCCC)Cc1ccco1)C(=O)CN(C=O)CC(CC)CCCC (stereo not drawn)	nm	109.3

Incoming: Consider the compound shown here: CCCCCCCCN(C=O)CC(=O)N(CCCOC(=O)CCCCCCC)CC(=O)N(CCSSCC(CC)CCCC)CC(=O)N(CCCN1CCOCC1)CC(=O)N(CCSSCC(CC)CCCC)CC(=O)N(CCCOC(=O)CCCCCCC)CC(=O)N(CCCCCCCC)CC(N)=O (stereo not drawn) [Compound 132] (For-[N(octyl)Gly][Gly(N-(CH2)3O-octanoyl)][X1][Gly(N-3-morpholinopropyl)][X1][Gly(N-(CH2)3O-octanoyl)][N(octyl)Gly]-NH2) What is its recorded Particle Size?
Outgoing: 86.0
